All values here come from ChEMBL document CHEMBL4513216.

# assay name: Toxicity liver stage against HepG2, at 10uM
# Type: cell-based
# Parameters: test concentration 10 uM, cell line HepG2-A16-CD81EGFP
# study conditions: human, HepG2-A16-CD81EGFP cells; read-out: INHIBITION
Recorded cytotoxicity at 10 µM for the following compounds
Just the number in %, nothing appended.

> print(dat)
                                   compound  measured.value
1  COc1cccc(NC(=O)Cn2cc(-c3ccccc3)ncc2=O)c1         -0.0638
2  CC(C)[C@@H]1CN(c2ncc(F)cn2)C[C@H]1NC(=O)N(C)C           -4.03

// query cytotoxicity at 10 µM value for entry CS(=O)(=O)Cc1nc(CNc2c(F)cc(F)cc2F)cs1
-4.73

// query cytotoxicity at 10 µM value for entry Cc1cccc(C)c1OCC(=O)NS(=O)(=O)c1c(C)noc1C
-2.28

// query cytotoxicity at 10 µM value for entry CC(C)S(=O)(=O)N1CCC(c2[nH]ncc2S(C)(=O)=O)C1 (stereo unspecified)
-21.5

----------
# assay name: Toxicity liver stage against HepG2, at 10uM
# Format: cell-based
# Parameters: test concentration 10 uM, cell line HepG2-A16-CD81EGFP
# study conditions: human, HepG2-A16-CD81EGFP cells; read-out: INHIBITION
property: cytotoxicity at 10 µM

Reference set (5 entries):
> print(dat)
                                   molecule  measured.value
1  Cc1cc(CN(Cc2cccs2)CC2CCCO2)no1 (stereo unspecified)           2.86%
2  COCCN1CCC(CNC(=O)Nc2ccc(SC(F)(F)F)cc2)C1 (stereo unspecified)          -11.6%
3  CCCc1nc(N2CCCC3(CCNC3)C2)c2cnn(C)c2n1 (stereo unspecified)          -47.8%
4  CN(CCCN1CCOCC1)[C@@H]1c2ccccc2C2(CCNCC2)[C@H]1O          -3.12%
5  CCOCCN1CCN(CC(O)c2cc(Cl)ccc2Cl)CC1 (stereo unspecified)          0.858%

// query cytotoxicity at 10 µM value for entry CCN(CC)CCNC(=O)c1nn(CC)cc1Cl
2.58%

----------
# assay name: Toxicity liver stage against HepG2, at 10uM
# Format: cell-based
# Design: test concentration 10 uM, cell line HepG2-A16-CD81EGFP
# study conditions: human, HepG2-A16-CD81EGFP cells; read-out: INHIBITION
property: cytotoxicity at 10 µM (%)
Just the number in %, nothing appended.

Reference set (3 entries):
> print(dat)
                                   compound  measured.value
1  O=S(=O)(Cc1ccccc1)NCC1CCCN(Cc2cccs2)C1 (stereo unspecified)             3.3
2  Cc1nc(C(=O)N2CC[C@@]3(C[C@H](NS(C)(=O)=O)CCO3)C2)cs1           -72.9
3  CCC(CC)C(O)CNC(=O)Cc1c[nH]c2ncccc12 (stereo unspecified)           0.476

// query cytotoxicity at 10 µM value for entry COc1ccc(CN2C[C@@H]3CCCO[C@@H]3[C@H](NC(=O)CC3CC3)C2)cc1
25.3

// query cytotoxicity at 10 µM value for entry Fc1cccc2[nH]c(CN3CCc4cncnc4C3)nc12
-1.03

// query cytotoxicity at 10 µM value for entry O=C(c1nc(=O)[nH][nH]1)N1CCCN(CC2CCCCC2)CC1
-12.9

// query cytotoxicity at 10 µM value for entry COCc1ccccc1C(=O)NCC(O)c1ccccc1F (stereo unspecified)
-3.67

----------
Recorded cytotoxicity at 10 µM for the following compounds
# assay name: Toxicity liver stage against HepG2, at 10uM
# Assay type: cell-based
# Design: test concentration 10 uM, cell line HepG2-A16-CD81EGFP
# study conditions: human, HepG2-A16-CD81EGFP cells; read-out: INHIBITION
Just the number in %, nothing appended.

> print(dat)
                     compound  measured.value
1  CCc1nc(Cn2nc(COC)oc2=O)cs1           -43.4

// query cytotoxicity at 10 µM value for entry CCN(CC)S(=O)(=O)N(CC)Cc1ccc2c(c1)OCCO2
4.66

// query cytotoxicity at 10 µM value for entry CC(NC(=O)Nc1cc(F)ccc1N1CCCCC1)c1nncn1C (stereo not drawn)
-3.36

----------
# assay name: Toxicity liver stage against HepG2, at 10uM
# Type: cell-based
# Parameters: test concentration 10 uM, cell line HepG2-A16-CD81EGFP
# study conditions: human, HepG2-A16-CD81EGFP cells; read-out: INHIBITION
property: cytotoxicity at 10 µM (%)
Just the number in %, nothing appended.

> print(dat)
                                   compound  unit.spec  measured.value
1  COCCN1C(=O)CO[C@H]2CN(Cc3ccccc3OC)C[C@H]21          %           -1.52
2     CCCN(CCC)c1nc(N)nc(-c2cc(Cl)ccc2OC)n1          %            7.43

// query cytotoxicity at 10 µM value for entry CC1(C)CC1(C(=O)N1CC(c2cccnc2)C1)c1ccc(F)cc1 (stereo unspecified)
-9.41

// query cytotoxicity at 10 µM value for entry Cc1nnc2n1CCN(C(=O)C1CCC(n3cccc3)CC1)C2 (stereo unspecified)
-1.05

// query cytotoxicity at 10 µM value for entry CCCNC(=O)N1CCN(Cc2cc(C)no2)CC1
-1.18

// query cytotoxicity at 10 µM value for entry CN(CCNC(=O)Nc1nccs1)Cc1ccc(F)cc1
-1.32

----------
# assay name: Toxicity liver stage against HepG2, at 10uM
# Format: cell-based
# Set-up: test concentration 10 uM, cell line HepG2-A16-CD81EGFP
# study conditions: human, HepG2-A16-CD81EGFP cells; read-out: INHIBITION
Recorded cytotoxicity at 10 µM for the following compounds
Just the number in %, nothing appended.

> print(dat)
                                   compound               property  measured.value
1  Oc1cc(CCC2CCCCN2)cc(-c2ccncc2)c1 (stereo not drawn)  cytotoxicity at 10 µM           -12.7
2  COCc1nc(NC(C)Cc2cc(C)n[nH]2)c2cnn(C)c2n1 (stereo not drawn)  cytotoxicity at 10 µM             -10
3  O=C([C@H]1COC[C@H]2CN(Cc3ccco3)C[C@H]21)N1CCCO1  cytotoxicity at 10 µM           -8.79
4  Cc1nn(C)c2nc(-c3ccccn3)nc(NC[C@@H]3CCCO3)c12  cytotoxicity at 10 µM            7.49
5  Cc1cc(C(=O)N2CCC(c3nccn3Cc3ccccn3)CC2)no1  cytotoxicity at 10 µM           -1.85

// query cytotoxicity at 10 µM value for entry OC(CNc1cncc(OCc2ccccc2)n1)c1ccco1 (stereo not drawn)
-1.53

// query cytotoxicity at 10 µM value for entry CC(C)N(C)C(=O)C1CSCN1S(=O)(=O)c1cccs1 (stereo not drawn)
-5.96

// query cytotoxicity at 10 µM value for entry CCOCC1CN(Cc2ccoc2)Cc2ncn(CC3CC3)c21 (stereo not drawn)
-14.5

// query cytotoxicity at 10 µM value for entry CCN(Cc1nc(Cc2ccccc2)no1)C1CC1
6.26

// query cytotoxicity at 10 µM value for entry Cc1cc(C(=O)N2CCCC(c3nncn3C)C2)no1 (stereo not drawn)
0.541

----------
Recorded cytotoxicity at 10 µM for the following molecules
# assay name: Toxicity liver stage against HepG2, at 10uM
# Type: cell-based
# Parameters: test concentration 10 uM, cell line HepG2-A16-CD81EGFP
# study conditions: human, HepG2-A16-CD81EGFP cells; read-out: INHIBITION
Just the number in %, nothing appended.

> print(dat)
                                   molecule  measured.value
1  COc1cn(-c2ccccc2)nc1C(=O)NCCN1CCCC(C)C1 (configuration not stated)            2.12
2  CNC(=O)[C@@H]1[C@H]2CN(Cc3ccccn3)CCN2C[C@H]1c1ccccc1            3.38
3  CC(C)C(=O)N1CCCC1C(=O)Nc1ccc(F)c(F)c1 (configuration not stated)           -1.57
4  COc1ccccc1CN1C[C@@H](F)[C@@H](OCc2nc3cnccc3[nH]2)C1           -6.66
5  COc1ccc(NC(=O)c2nc3ccccc3n(C)c2=O)c(OC)c1            0.37

// query cytotoxicity at 10 µM value for entry Cc1oc(C)c(C(=O)Nc2ccccn2)c1C
-9.78

// query cytotoxicity at 10 µM value for entry CC(=O)N1CCC2(CC1)[C@@H]1CN(Cc3cccnc3)C[C@@H]1C(=O)N2C
4.73

// query cytotoxicity at 10 µM value for entry Cc1nc(CN2CCCC2c2nc(C(C)C)no2)cs1 (configuration not stated)
-9.7

// query cytotoxicity at 10 µM value for entry O=C(NC1CCCN(c2ccc(OC(F)F)cc2)C1)c1cc[nH]n1 (configuration not stated)
3.65
